- Tested on: Staphylococcus aureus
- Assay Summary: microbe, parasite or virus in culture
- Type: functional
- Condition Set: ATCC29213, time 20 hrs

{"Smiles Input": "C=C[C@]1(C)C[C@@H](OC(=O)CSc2nc3ccc(F)cc3c(=O)[nH]2)[C@]2(C)[C@H](C)CC[C@]3(CCC(=O)[C@H]32)[C@@H](C)[C@@H]1O", "MIC (µg/mL)": 0.25}
{"Smiles Input": "C=C[C@]1(C)C[C@@H](OC(=O)CSc2nc3[nH]ccc3c(=O)[nH]2)[C@]2(C)[C@H](C)CC[C@]3(CCC(=O)[C@H]32)[C@@H](C)[C@@H]1O", "MIC (µg/mL)": 0.063}
{"Smiles Input": "C=C[C@]1(C)C[C@@H](OC(=O)CSc2nc3cc(Br)ccc3c(=O)[nH]2)[C@]2(C)[C@H](C)CC[C@]3(CCC(=O)[C@H]32)[C@@H](C)[C@@H]1O", "MIC (µg/mL)": 0.25}
{"Smiles Input": "C=C[C@]1(C)C[C@@H](OC(=O)CSc2nc3ccccc3c(=O)n2CC)[C@]2(C)[C@H](C)CC[C@]3(CCC(=O)[C@H]32)[C@@H](C)[C@@H]1O", "MIC (µg/mL)": 0.125}
{"Smiles Input": "C=C[C@]1(C)C[C@@H](OC(=O)CSc2nc3ccc(Cl)cc3c(=O)[nH]2)[C@]2(C)[C@H](C)CC[C@]3(CCC(=O)[C@H]32)[C@@H](C)[C@@H]1O", "MIC (µg/mL)": 0.25}
{"Smiles Input": "C=C[C@]1(C)C[C@@H](OC(=O)CSc2nc3ccc(Br)cc3c(=O)[nH]2)[C@]2(C)[C@H](C)CC[C@]3(CCC(=O)[C@H]32)[C@@H](C)[C@@H]1O", "MIC (µg/mL)": 0.25}
